// provenance: FireProtDB (doi:10.1021/bi00025a018)

B1: Ribonuclease HI, P0A7Y4 (parent)
chain: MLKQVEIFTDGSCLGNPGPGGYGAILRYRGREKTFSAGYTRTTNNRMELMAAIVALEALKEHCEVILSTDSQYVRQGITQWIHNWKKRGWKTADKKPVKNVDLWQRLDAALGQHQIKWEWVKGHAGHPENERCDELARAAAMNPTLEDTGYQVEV

variants of: B1; details: Escherichia coli (strain K12); pH 3; Thermal; CD; glycine-HCl 10 mM; NaCl 0.1 M; reversible: yes; structure 2RN2; whole UniProt chain shown
readout name: change of melting temperature, mutant - wild type (higher = more stable) (°C)
Give the value in °C but do not write °C after it.

Examples from the recorded data:
Which measured change of melting temperature, mutant - wild type (higher = more stable) value corresponds to `D134H` ?
1.7

Which measured change of melting temperature, mutant - wild type (higher = more stable) value corresponds to `H62P` ?
3.4

Which measured change of melting temperature, mutant - wild type (higher = more stable) value corresponds to `V74L` ?
3.7

// below: change of melting temperature, mutant - wild type (higher = more stable) requested for another variant
Which measured change of melting temperature, mutant - wild type (higher = more stable) value corresponds to `G23A` ?
2.3
